Quick list: EC50 per entry.
# SYSTEM NAME: mGluR2 receptor (metabotropic glutamate receptor 2) (Homo sapiens, UniProt Q14416)
# Construct: expressed in transfected cells
# Sequence (Q14416 19-872, species assumed): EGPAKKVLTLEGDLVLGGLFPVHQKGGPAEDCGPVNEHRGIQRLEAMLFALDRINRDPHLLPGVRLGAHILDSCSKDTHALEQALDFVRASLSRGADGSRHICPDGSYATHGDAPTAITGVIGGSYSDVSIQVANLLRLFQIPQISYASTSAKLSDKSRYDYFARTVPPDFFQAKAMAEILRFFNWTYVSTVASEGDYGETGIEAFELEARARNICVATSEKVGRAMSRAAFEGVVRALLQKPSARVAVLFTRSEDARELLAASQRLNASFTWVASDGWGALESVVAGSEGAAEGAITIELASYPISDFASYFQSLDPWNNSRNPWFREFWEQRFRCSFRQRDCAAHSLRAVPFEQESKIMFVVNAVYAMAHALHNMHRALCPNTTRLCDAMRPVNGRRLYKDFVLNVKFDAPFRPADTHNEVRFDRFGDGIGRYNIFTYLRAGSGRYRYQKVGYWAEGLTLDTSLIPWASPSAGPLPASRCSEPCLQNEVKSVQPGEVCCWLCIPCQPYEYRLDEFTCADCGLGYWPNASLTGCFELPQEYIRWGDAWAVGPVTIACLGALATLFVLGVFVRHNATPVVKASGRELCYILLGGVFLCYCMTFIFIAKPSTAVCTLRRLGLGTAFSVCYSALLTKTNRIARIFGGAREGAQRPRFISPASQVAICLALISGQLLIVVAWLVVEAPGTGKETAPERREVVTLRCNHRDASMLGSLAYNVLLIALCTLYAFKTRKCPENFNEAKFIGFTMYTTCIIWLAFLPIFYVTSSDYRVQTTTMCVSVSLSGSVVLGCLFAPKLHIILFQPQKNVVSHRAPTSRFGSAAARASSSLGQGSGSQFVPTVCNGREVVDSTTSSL
# TEST DESCRIPTION: mGluR2 Potentiator Screen, FLIPR, EC10-EC20 glutamate challenge
# Assay type: cell-based
# TEST CONDITIONS: read-out: EC50

COMPOUND | UNIT | VALUE QUALIFIER | EC50
Cn1c(CN2CCC(c3ccc(Cl)c(F)c3)CC2)nc2cc(F)ccc21 | nM | = | 88.2
C#CCOc1ccc(Cl)cc1C1CCN(Cc2nc3ccccc3n2CCOC)CC1 | nM | = | 79
CN1CC2(CCN(Cc3nc4ccccc4n3C)CC2)c2cc(Br)ccc21 | nM | = | 1410
CCOC(=O)CCC(=O)N1CC2(CCN(Cc3nc4ccccc4n3C)CC2)c2cc(Cl)ccc21 | nM | = | 1630
CC1CN(Cc2nc3ccccc3n2C)CC(C)C1(O)c1ccccc1 (stereo not drawn) | nM | > | 7440
Cn1c(CN2CCC(c3ccc(C(F)(F)F)cc3)CC2)nc2cc(C(N)=O)ccc21 | nM | = | 498
Cn1c(CN2CC[C@@H]3c4ccccc4OC[C@H]3C2)nc2ccccc21 | nM | = | 1520
COc1ccccc1C1CCN(Cc2nc3cc(F)ccc3n2C)CC1 | nM | = | 39.4
CN1CC2(CCN(Cc3nc4ccccc4n3C)CC2)c2cc(F)ccc21 | nM | = | 2650
Cn1c(CN2CCC(c3ccc(F)cc3)CC2)nc2c(Br)cccc21 | nM | = | 2140
Cn1c(CN2CCC(c3cccc(C(F)(F)F)c3)CC2)nc2c(F)cccc21 | nM | = | 123
Cn1c(CN2CCC(c3ccccc3C#N)CC2)nc2ccccc21 | nM | = | 168
Cc1ccccc1C1CCN(Cc2nc3ccccc3n2C)CC1 | nM | = | 65.1
Cn1c(CN2CCC3(CC2)CN(CC2CC2)c2ccc(Cl)cc23)nc2ccccc21 | nM | = | 2510
CC(C)Oc1ccccc1C1CCN(Cc2nc3c(F)cccc3n2C)CC1 | nM | = | 1030
Cn1c(CN2CCC(c3ccccc3C(F)(F)F)CC2)nc2cc(Cl)ccc21 | nM | = | 1750
Cn1c(CN2CCC(c3ccc(Cl)c(C(F)(F)F)c3)CC2)nc2ccccc21 | nM | = | 42.9
Cn1c(CN2CCC(c3ccccc3C(F)(F)F)CC2)nc2c(F)cccc21 | nM | = | 232
Cn1c(CN2CC[C@@H]3c4ccccc4CC[C@@H]3C2)nc2ccccc21 | nM | = | 693
Cn1c(CN2CCC(c3ccc(C(F)(F)F)cc3)CC2)nc2cc(F)c(F)cc21 | nM | = | 422
Cn1c(CN2CCC(c3ccc(C(F)(F)F)cc3F)CC2)nc2cc(Cl)ccc21 | nM | = | 493
Cn1c(CN2CCC(c3cc(C(F)(F)F)ccc3F)CC2)nc2c(F)cccc21 | nM | = | 161
Cn1c(CN2CCC3(CC2)CN(CC2CC2)c2ccccc23)nc2ccccc21 | nM | = | 7380
C[C@@H]1CN(Cc2nc3ccccc3n2C)CC[C@@H]1c1ccc(Cl)cc1Cl (relative stereo) | nM | = | 86.2
Cn1c(CN2CCC(c3ccccc3F)CC2)nc2cc(F)c(F)cc21 | nM | = | 468
COCn1c(CN2CCC(c3cc(C(F)(F)F)ccc3OC)CC2)nc2ccccc21 | nM | = | 3800
C[C@H]1C[C@@H](c2ccc(C(F)(F)F)cc2)CCN1Cc1nc2ccccc2n1C (relative stereo) | nM | = | 454
C[C@@H]1CN(Cc2nc3ccccc3n2C)CC[C@@H]1c1ccc(F)c(Cl)c1 (relative stereo) | nM | = | 181
Cn1c(CN2CCC(F)(c3ccc(F)cc3)CC2)nc2cccc(F)c21 | nM | = | 460
Cc1cc(F)ccc1C1CCN(Cc2nc3ccccc3n2C)CC1 | nM | = | 43.3
